The reported measurements were obtained from ChEMBL document CHEMBL5291721.

# experimental system: D(3) dopamine receptor (Homo sapiens); further: assay procedure not described here
# Sequence (P35462 whole entry): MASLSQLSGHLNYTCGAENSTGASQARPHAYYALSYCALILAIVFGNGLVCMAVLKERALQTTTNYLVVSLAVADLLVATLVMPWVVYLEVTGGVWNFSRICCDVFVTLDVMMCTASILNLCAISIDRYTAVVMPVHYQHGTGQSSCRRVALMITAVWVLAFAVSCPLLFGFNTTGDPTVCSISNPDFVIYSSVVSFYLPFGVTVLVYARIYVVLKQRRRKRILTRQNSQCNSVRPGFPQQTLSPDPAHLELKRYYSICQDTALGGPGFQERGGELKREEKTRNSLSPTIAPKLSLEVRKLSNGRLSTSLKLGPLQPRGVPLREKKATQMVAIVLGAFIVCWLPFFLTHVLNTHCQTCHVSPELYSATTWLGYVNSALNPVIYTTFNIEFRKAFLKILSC
I'd be grateful if you could share measured AC50 for these entries.

[[record]]
molecule = "CC(C)OC(=O)CCC/C=C\\C[C@@H]1[C@@H](CC[C@@H](O)CCc2ccccc2)[C@H](O)C[C@@H]1O"
recorded_result = "> 30 µM"

[[record]]
molecule = "NC(=O)OCC(COC(N)=O)c1ccccc1 [FELBAMATE]"
recorded_result = "> 10 µM"

[[record]]
molecule = "CN(C)CC/C=C1\\c2ccccc2CSc2ccccc21 [DOTHIEPIN]"
recorded_result = "3 µM"

[[record]]
molecule = "CC(C)C[C@H]1C(=O)N2CCC[C@H]2[C@]2(O)O[C@](NC(=O)[C@@H]3C=C4c5cccc6[nH]c(Br)c(c56)C[C@H]4N(C)C3)(C(C)C)C(=O)N12"
recorded_result = "0.105 µM"

[[record]]
molecule = "CN(C)CCC=C1c2ccccc2C=Cc2ccccc21"
recorded_result = "1.1 µM"

[[record]]
molecule = "Cc1cn([C@H]2C=C[C@@H](CO)O2)c(=O)[nH]c1=O"
recorded_result = "> 10 µM"

[[record]]
molecule = "O=C1Nc2ccc(Cl)cc2[C@@](C#CC2CC2)(C(F)(F)F)O1"
recorded_result = "> 30 µM"


Please report AC50 for the following molecule: `N#Cc1ccc([C@H]2CCc3cncn32)c(F)c1` > 10 µM
